The reported measurements were obtained from patent US20200239543A1.

Biological target: T1, mouse CD47 (mouse, UniProt Q61735 19-140, limits assumed)
T1 construct: also called mouse CD47 protein
T1 sequence (looked up): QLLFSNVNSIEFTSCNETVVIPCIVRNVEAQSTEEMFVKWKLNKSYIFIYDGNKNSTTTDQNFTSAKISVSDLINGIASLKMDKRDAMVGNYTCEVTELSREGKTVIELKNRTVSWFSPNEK
Assay: SPR (Biacore T100 and ProteOn XPR36)
Entries annotated with measured Kd
Lab note: write values as number then unit, every time.

Example binders with recorded Kd:
{"binder": "SIRP-α D1 variant polypeptide of SEQ ID NO: 210 (receptor) EEELQIIQPDKSVLVAAGETATLRCTITSLFPVGPIQWFRGAGPGRELIYNQRDGPFPRVTTVSDTTKRNNMDFSIRIGAITPADAGTYYCVKFRKGIPDDVEFKSGAGTELSVRAKPS", "result": "0.612 nM"}
{"binder": "SIRP-α D1 variant polypeptide of SEQ ID NO: 208 (receptor) EEELQIIQPDKSVLVAAGETATLRCTITSLYPVGPIQWFRGAGPGRELIYNQREGPFPRVTTVSDTTKRNNMDFSIRIGAITPADAGTYYCVKFRKGIPDDVEFKSGAGTELSVRAKPS", "result": "0.832 nM"}
{"binder": "SIRP-α D1 variant polypeptide of SEQ ID NO: 204 (receptor) EEELQIIQPDKSVLVAAGETATLRCTITSLRPVGPIQWFRGAGPGRELIYNQRDGPFPRVTTVSDTTKRNNMDFSIRIGAITPADAGTYYCVKFRKGSPDDVEFKSGAGTELSVRAKPS", "result": "0.448 nM"}
{"binder": "SIRP-α D1 variant polypeptide of SEQ ID NO: 209 (receptor) EEELQIIQPDKSVLVAAGETATLRCTITSLYPVGPIQWFRGAGPGRELIYNQRDGPFPRVTTVSDTTKRNNMDFSIRIGAITPADAGTYYCVKFRKGIPDDVEFKSGAGTELSVRAKPS", "result": "0.371 nM"}
{"binder": "SIRP-α D1 variant polypeptide of SEQ ID NO: 200 (receptor) EEELQIIQPDKSVLVAAGETATLRCTITSLFPVGPIQWFRGAGPGRELIYNQREGPFPRVTTVSDTTKRNNMDFSIRIGAITPADAGTYYCVKFRKGIPDDVEFKSGAGTELSVRAKPS", "result": "1.17 nM"}

With those in mind, consider the next binder.
Looking up SIRP-α D1 variant polypeptide of SEQ ID NO: 199 (receptor) EEELQIIQPDKSVLVAAGETATLRCTITSLFPVGPIQWFRGAGPGRELIYNQRDGPFPRVTTVSDTTKRNNMDFSIRIGAITPADAGTYYCVKFRKGSPDDVEFKSGAGTELSVRAKPS , I found its Kd recorded as 1.25 nM
